Entries and their Imax values follow.
TARGET ENTITY: 5-hydroxytryptamine receptor 6 (Homo sapiens, UniProt P50406)
Sequence (P50406 whole entry): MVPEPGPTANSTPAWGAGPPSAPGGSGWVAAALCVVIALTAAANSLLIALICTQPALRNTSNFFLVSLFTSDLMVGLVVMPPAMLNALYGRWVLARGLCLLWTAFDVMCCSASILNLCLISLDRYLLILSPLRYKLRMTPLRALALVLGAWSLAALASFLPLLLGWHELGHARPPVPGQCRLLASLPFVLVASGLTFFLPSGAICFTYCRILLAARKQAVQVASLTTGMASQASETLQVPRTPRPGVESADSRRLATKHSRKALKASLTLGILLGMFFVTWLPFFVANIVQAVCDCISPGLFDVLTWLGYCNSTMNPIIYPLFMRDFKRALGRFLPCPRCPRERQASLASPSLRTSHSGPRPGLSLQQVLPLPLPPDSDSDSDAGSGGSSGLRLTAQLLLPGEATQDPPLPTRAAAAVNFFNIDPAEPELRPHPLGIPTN
TEST DETAILS: Antagonist activity at human cloned 5HT6 receptor expressed in HeLa cells assessed as inhibition of adenylyl cyclase activity by RIA relative to serotonin
Format: functional, cell-based
Just the number in %, nothing appended.

> print(dat)
                         structure.notation  metric.name  observed.measurement
1  CN(C)CCn1cc(S(=O)(=O)c2cc(Cl)ccc2Cl)c2cccnc21         Imax                    97

Query `CNCCn1cc(S(=O)(=O)c2c(Cl)nc3sccn23)c2cccnc21` on 5-hydroxytryptamine receptor 6 (Homo sapiens, UniProt P50406); Imax returned: 89

Item: `CNCCn1cc(S(=O)(=O)c2cccc(F)c2)c2cccnc21` | System: 5-hydroxytryptamine receptor 6 (Homo sapiens, UniProt P50406) | Imax: 93

Item `CNCCn1cc(S(=O)(=O)c2cccc(Cl)c2)c2cccnc21` ; assay system 5-hydroxytryptamine receptor 6 (Homo sapiens, UniProt P50406); Imax reported as 100
